src = paper PMC8751641

The compounds listed here are annotated with their IC50.
Tested on: SARS-CoV-2 Wk-521 strain
PROTOCOL DESCRIPTION: Anti-SARS-CoV-2 assay (extracellular viral RNA, VeroE6/TMPRSS2 cells)
RUN PARAMETERS: read-out: Anti-SARS-CoV-2 activity IC50, MOI 0.003, 24 h, extracellular viral RNA, mean ± SD, triplicate

Past entries and their recorded results:
[
  {
    "COMPOUND": "C=c1[nH]c(=O)/c(=C/c2c[nH]c3ccccc23)[nH]c1=O [1b]",
    "EXPERIMENTAL SYSTEM": "SARS-CoV-2 Wk-521 strain",
    "IC50": "> 40 µM"
  },
  {
    "COMPOUND": "C=c1[nH]c(=O)/c(=C/c2ccc(OC)c(OC)c2)[nH]c1=O [1j]",
    "EXPERIMENTAL SYSTEM": "SARS-CoV-2 Wk-521 strain",
    "IC50": "10.3 µM"
  },
  {
    "COMPOUND": "C=c1[nH]c(=O)/c(=C/c2ccccc2)[nH]c1=O [1c]",
    "EXPERIMENTAL SYSTEM": "SARS-CoV-2 Wk-521 strain",
    "IC50": "13.6 µM"
  }
]

Given the entry C=CC(C)(C)c1[nH]c2ccccc2c1/C=c1\[nH]c(=O)c(=C)[nH]c1=O [1a, neoechinulin B] , report its measured IC50.
32.9 µM

Given the entry C=c1[nH]c(=O)/c(=C/c2ccc3ccccc3c2)[nH]c1=O [1p] , report its measured IC50.
> 40 µM

Given the entry C=CC(C)(C)c1[nH]c2ccccc2c1/C=C1\NC(=O)C(C)(OC)NC1=O (stereo not drawn) [compound 6, variecolorin H] , report its measured IC50.
> 40 µM

* * *

Test system: SARS-CoV-2 Wk-521 strain
PROTOCOL DESCRIPTION: Anti-SARS-CoV-2 assay (extracellular viral RNA, VeroE6/TMPRSS2 cells)
RUN PARAMETERS: read-out: Anti-SARS-CoV-2 activity IC50, MOI 0.003, 24 h, extracellular viral RNA, mean ± SD, triplicate
QUANTITY: IC50 (µM)
Give the value, in units of µM, as a plain number.

Past entries and their recorded results:
[
  {
    "RECORD SMILES": "C=c1[nH]c(=O)/c(=C/c2ccc(C(=O)OC)cc2)[nH]c1=O",
    "IC50 [µM]": 8.4
  },
  {
    "RECORD SMILES": "C=c1[nH]c(=O)/c(=C/c2ccc(-c3ccccc3)cc2)[nH]c1=O",
    "IC50 [µM]": 20.8
  },
  {
    "RECORD SMILES": "C=c1[nH]c(=O)/c(=C/c2ccoc2)[nH]c1=O",
    "IC50 [µM]": 9.3
  }
]

Let us examine a further case.
Given the entry C=c1[nH]c(=O)/c(=C/c2ccc(C)cc2)[nH]c1=O , report its measured IC50.
6

* * *

The compounds listed here are annotated with their melting point.

Past entries and their recorded results:
[
  {
    "COMPOUND": "C=c1[nH]c(=O)/c(=C/c2ccc(C)cc2)[nH]c1=O [1h]",
    "melting point": "237 to 239 °C"
  },
  {
    "COMPOUND": "C=c1[nH]c(=O)/c(=C/c2ccc(-c3ccccc3)cc2)[nH]c1=O [1o]",
    "melting point": "229 to 230 °C"
  },
  {
    "COMPOUND": "C=c1[nH]c(=O)/c(=C/c2ccsc2)[nH]c1=O [1e]",
    "melting point": "242 to 243 °C"
  },
  {
    "COMPOUND": "C=c1[nH]c(=O)/c(=C/c2ccccc2)[nH]c1=O [1c]",
    "melting point": "242 to 243 °C"
  },
  {
    "COMPOUND": "C=c1[nH]c(=O)/c(=C/c2ccc(OC)cc2)[nH]c1=O [1i]",
    "melting point": "229 to 231 °C"
  },
  {
    "COMPOUND": "C=c1[nH]c(=O)/c(=C/c2ccc(C(F)(F)F)cc2)[nH]c1=O [1n]",
    "melting point": "244 to 245 °C"
  },
  {
    "COMPOUND": "C=c1[nH]c(=O)/c(=C/c2ccc(C(C)(C)C)cc2)[nH]c1=O [1g]",
    "melting point": "212 to 213 °C"
  },
  {
    "COMPOUND": "C=c1[nH]c(=O)/c(=C/c2ccc(C(=O)OC)cc2)[nH]c1=O [1l]",
    "melting point": "248 to 249 °C"
  },
  {
    "COMPOUND": "C=c1[nH]c(=O)/c(=C/c2cc(C(C)(C)C)cc(C(C)(C)C)c2)[nH]c1=O [1f]",
    "melting point": "204 to 205 °C"
  },
  {
    "COMPOUND": "C=c1[nH]c(=O)/c(=C/c2c[nH]c3ccccc23)[nH]c1=O [1b]",
    "melting point": "285 to 286 °C"
  }
]

Given the entry C=c1[nH]c(=O)/c(=C/c2ccc3ccccc3c2)[nH]c1=O [1p] , report its measured melting point.
216 to 217 °C

Given the entry C=c1[nH]c(=O)/c(=C/c2ccc(N(C)C)cc2)[nH]c1=O [1m] , report its measured melting point.
225 to 227 °C

Given the entry C=c1[nH]c(=O)/c(=C/c2ccc(OC)c(OC)c2)[nH]c1=O [1j] , report its measured melting point.
237 to 238 °C

Given the entry C=c1[nH]c(=O)/c(=C/c2ccoc2)[nH]c1=O [1d] , report its measured melting point.
242 to 243 °C

Given the entry C=c1[nH]c(=O)/c(=C/c2cc(OC)c(OC)c(OC)c2)[nH]c1=O [1k] , report its measured melting point.
219 to 221 °C

* * *

PROTOCOL DESCRIPTION: Cell viability of VeroE6/TMPRSS2 cells (DAPI staining, cell count)
Type: cell-based
RUN PARAMETERS: chlorocebus sabaeus, 24 h, DAPI staining, surviving cell number, read-out: Cytotoxicity CC50
The compounds listed here are annotated with their CC50 at 24 h.
Give the value, in units of µM, as a plain number.

[
  {
    "RECORD SMILES": "C=c1[nH]c(=O)/c(=C/c2ccsc2)[nH]c1=O",
    "QUANTITY": "CC50 at 24 h",
    "ENDPOINT VALUE": 42.2
  },
  {
    "RECORD SMILES": "C=c1[nH]c(=O)/c(=C/c2ccc(C(F)(F)F)cc2)[nH]c1=O",
    "QUANTITY": "CC50 at 24 h",
    "ENDPOINT VALUE": 30.1
  },
  {
    "RECORD SMILES": "C=c1[nH]c(=O)/c(=C/c2ccccc2)[nH]c1=O",
    "QUANTITY": "CC50 at 24 h",
    "ENDPOINT VALUE": 40.1
  },
  {
    "RECORD SMILES": "C=c1[nH]c(=O)/c(=C/c2ccc(N(C)C)cc2)[nH]c1=O",
    "QUANTITY": "CC50 at 24 h",
    "ENDPOINT VALUE": 28.3
  },
  {
    "RECORD SMILES": "C=c1[nH]c(=O)/c(=C/c2ccc(OC)cc2)[nH]c1=O",
    "QUANTITY": "CC50 at 24 h",
    "ENDPOINT VALUE": 47.2
  },
  {
    "RECORD SMILES": "C=c1[nH]c(=O)/c(=C/c2cc(OC)c(OC)c(OC)c2)[nH]c1=O",
    "QUANTITY": "CC50 at 24 h",
    "ENDPOINT VALUE": 78.8
  },
  {
    "RECORD SMILES": "C=c1[nH]c(=O)/c(=C/c2ccc(OC)c(OC)c2)[nH]c1=O",
    "QUANTITY": "CC50 at 24 h",
    "ENDPOINT VALUE": 62.8
  },
  {
    "RECORD SMILES": "C=c1[nH]c(=O)/c(=C/c2ccc3ccccc3c2)[nH]c1=O",
    "QUANTITY": "CC50 at 24 h",
    "ENDPOINT VALUE": 40.7
  }
]

Let us examine a further case.
Given the entry C=c1[nH]c(=O)/c(=C/c2ccc(C)cc2)[nH]c1=O , report its measured CC50 at 24 h.
63.1

* * *

The molecules listed here are annotated with their CC50 at 24 h.
PROTOCOL DESCRIPTION: Cell viability of VeroE6/TMPRSS2 cells (DAPI staining, cell count)
Format: cell-based
RUN PARAMETERS: chlorocebus sabaeus, 24 h, DAPI staining, surviving cell number, read-out: Cytotoxicity CC50

Past entries and their recorded results:
[
  {
    "MOLECULE": "C=c1[nH]c(=O)/c(=C/c2ccc(C(=O)OC)cc2)[nH]c1=O [1l]",
    "CC50 at 24 h": "> 50 µM"
  },
  {
    "MOLECULE": "C=c1[nH]c(=O)/c(=C/c2cc(C(C)(C)C)cc(C(C)(C)C)c2)[nH]c1=O [1f]",
    "CC50 at 24 h": "> 100 µM"
  },
  {
    "MOLECULE": "C=CC(C)(C)c1[nH]c2ccccc2c1/C=C1\\NC(=O)C(C)(OC)NC1=O (stereo not drawn) [compound 6, variecolorin H]",
    "CC50 at 24 h": "> 100 µM"
  },
  {
    "MOLECULE": "C=c1[nH]c(=O)/c(=C/c2ccc(-c3ccccc3)cc2)[nH]c1=O [1o]",
    "CC50 at 24 h": "> 100 µM"
  },
  {
    "MOLECULE": "C=c1[nH]c(=O)/c(=C/c2ccc(C(C)(C)C)cc2)[nH]c1=O [1g]",
    "CC50 at 24 h": "> 70 µM"
  },
  {
    "MOLECULE": "C=CC(C)(C)c1[nH]c2ccccc2c1/C=c1\\[nH]c(=O)c(=C)[nH]c1=O [1a, neoechinulin B]",
    "CC50 at 24 h": "> 70 µM"
  }
]

Given the entry C=c1[nH]c(=O)/c(=C/c2c[nH]c3ccccc23)[nH]c1=O [1b] , report its measured CC50 at 24 h.
> 100 µM

Given the entry C=c1[nH]c(=O)/c(=C/c2ccoc2)[nH]c1=O [1d] , report its measured CC50 at 24 h.
> 80 µM

Given the entry C=CC(C)(C)c1[nH]c2ccccc2c1C[C@@H]1NC(=O)[C@H](C)NC1=O [compound 8, preechinulin] , report its measured CC50 at 24 h.
> 100 µM
